Target: AM2 (Influenza A virus, UniProt P0DOF5)
Sequence (P0DOF5 whole entry): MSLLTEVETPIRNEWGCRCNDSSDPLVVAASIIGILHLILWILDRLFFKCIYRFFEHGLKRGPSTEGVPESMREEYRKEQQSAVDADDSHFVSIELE
Assay: biochemical
Format: biochemical
Settings: compared with the parent compound (BL-1743; 12 for 13)
endpoint-label: change of potency on replacing or installing the head group

# molecule, result-value
measured = [
    ("N=C(N)N1CCC2(CCCCC2)CC1 [Compound 7, 3-Aza-spiro[5,5]undecane-3-carboxamidine]", "Increases of potency"),
    ("NS(=O)(=O)N1CCC2(CCCCC2)CC1", "Increases of potency"),
]

====

Biological target: AM2 (Influenza A virus, UniProt P0DOF5)
Experiment: biochemical
Format: biochemical
Conditions: AM2
Response field label takes rule met when % Activity is strictly below 30% and rule not met in all other cases.

# compound, classification
rows = [
    ("O=C1CCCC(=O)C12CCNCC2 [Compound 10, 3-Aza-spiro[5.5]undecane-7,11-dione]", "rule not met"),
    ("N=C(N)N1CCC2(CCCCC2)CC1 [Compound 7, 3-Aza-spiro[5,5]undecane-3-carboxamidine]", "rule met"),
    ("NC1CCC2(CCCCC2)CC1 [Compound 8, Spiro[5.5]undec-3-ylamine]", "rule met"),
    ("S=C1CCCC(=S)C12CCNCC2 [Compound 11, 3-Aza-spiro[5.5]undecane-7,11-dithione]", "rule met"),
    ("NC(=S)N1CCC2(CCCCC2)CC1 [Compound 5]", "rule not met"),
    ("CN1CCC2(CCCCC2)CC1.Cl [Compound 3]", "rule met"),
]

====

Molecular target: AM2 (Influenza A virus, UniProt P0DOF5)
Assay: biochemical
Format: biochemical
Conditions: Table 1; read-out: IC50
Catalogue of IC50 readings, one per entry.
endpoint-label: IC50 (µM)

# compound, result-value
rows = [
    ("CN1CCC2(CCCCC2)CC1.Cl", 20.6),
    ("C1CCC2(C1)CCNCC2 [Compound 12, 8-Aza-spiro[4.5]decane]", 8.14),
    ("NS(=O)(=O)N1CCC2(CCCCC2)CC1", 15.3),
    ("N=C(N)N1CCC2(CCCCC2)CC1 [Compound 7, 3-Aza-spiro[5,5]undecane-3-carboxamidine]", 22.8),
]

====

Molecular target: AM2 (Influenza A virus)
Experiment: biochemical
Type: biochemical
pIC50: −log10 of the molar value.
endpoint-label: pIC50

# compound, result-value
data = [
    ("C1CCC2CN(C3=NCCN3)CCC2C1 (mixture of isomers)", 4.53),
    ("NC1CC2CC1C1CCCC21 (stereo not drawn)", 4.82),
    ("CNC1CC2CC1C1CCCC21 (stereo not drawn)", 4.87),
]

====

Catalogue of IC50 readings, one per entry.
Target: AM2 (Influenza A virus)
Assay: biochemical
Type: biochemical
Conditions: SAR of BL-1743; read-out: IC50
endpoint-label: IC50 (µM)

# molecule, bound-sign, result-value
measured = [
    ("O=C1CCCC(=O)C12CCNCC2 [Compound 10, 3-Aza-spiro[5.5]undecane-7,11-dione]", ">", 100),
    ("S=C1CCCC(=S)C12CCNCC2 [Compound 11, 3-Aza-spiro[5.5]undecane-7,11-dithione]", "=", 37.6),
]

====

Catalogue of % Activity readings, one per entry.
Molecular target: AM2 (Influenza A virus, UniProt P0DOF5)
Assay: biochemical
Type: biochemical
Conditions: AM2
endpoint-label: % Activity

# molecule, result-value
records = [
    ("CC1(C)CCNCC1.Cl [Compound 22, 4,4-Dimethyl-piperidine hydrochloride]", "22 (55%)"),
    ("NC(=O)N1CCC2(CCCCC2)CC1", "30%"),
    ("C1CCC2(CC1)CCNC2.Cl [Compound 23, 2-Aza-spiro[4.5]decane hydrochloride]", "23 (6%)"),
    ("OC(c1cnc[nH]1)N1CCC2(CCCCC2)CC1 (stereo not drawn)", "30%"),
    ("C1CCC2(C1)CCNCC2 [Compound 12, 8-Aza-spiro[4.5]decane]", "12 (16.2%)"),
    ("NS(=O)(=O)N1CCC2(CCCCC2)CC1", "6 (14%)"),
]
